These measurements were taken from ChEMBL document CHEMBL5303304.

tested on: U2OS; test: Incucyte cell viability with U2OS; format: toxicity, cell-based; settings: human, 18 h, 10 µM, compound concentration 10 uM, replicate number 1; note: unitless GR value; below 1 slowed growth and below 0 cell loss
Response field label takes 1 when Growth Rate is strictly below 0.8 and -1 in all other cases.

Molecule | Cat
CC1(C)CC(=O)c2c(SCCO)sc(-c3nccs3)c2C1 | -1
COc1cccc(-c2c(C)c(Cc3c(F)cccc3C(F)(F)F)c3n(c2=O)[C@@H]([C@@H](N)c2ccccc2)CS3)c1F | 1
COc1nc2ccc([C@@](O)(c3ccccc3)C3CCN(C(C)=O)CC3)cc2c(Cl)c1Cc1ccc(-n2cccn2)cc1 | -1
CC(C=CC1=C(C)CCCC1(C)C)=CC=CC(C)=CC(=O)O | 1
NC(=O)c1cc(-c2ccnc(NC3CCCCC3)c2)nc(N2CCNCC2)c1 | -1
C=C1/C(=C\C=C2/CCC[C@]3(C)[C@@H]([C@H](C)CCCC(C)(C)O)CC[C@@H]23)C[C@@H](O)C[C@@H]1O | -1
CNC(=O)c1c(F)cccc1Nc1nc(Nc2cc3c(cc2OC)CCN3C(=O)CN(C)C)nc2[nH]ccc12 | 1
NC(=O)c1ccc(-c2nc(-c3ccc4c(c3)OCCO4)c(-c3ccccn3)[nH]2)cc1 | 1
Cc1cc(Cn2c(N3CC4(CNC4)C3)nc3c(N4CCN(C)CC4)cc(Cl)cc32)cc(C)c1F | 1
COc1ccc(S(=O)(=O)N2CCOCC2)cc1Nc1ccc2c(n1)N(C1CCN(C)CC1)[C@H](C)C(=O)N2C | -1
CC(C)CC(=O)Nc1cncc(-c2ccc3[nH]nc(-c4nc5c(-c6cccc(F)c6)cncc5[nH]4)c3c2)c1 | 1
O=C(Nc1c(-c2cccs2)nc2ccc(Cl)cn12)c1ccc(Cl)cc1 | -1
c1cc(-c2cnn3cc(-c4ccc(N5CCNCC5)cc4)cnc23)c2cccnc2c1 | 1
C/C=C1\C(=O)CC2C3CCC4=CC(=O)CC[C@]4(C)C3CC[C@]12C (stereo partly drawn) | -1
CN(C)C/C=C/C(=O)Nc1cccc(C(=O)Nc2ccc(Nc3nccc(-c4cccnc4)n3)cc2)c1 | 1
Cc1cc(Nc2cc(N)ncn2)c(=O)n2c1C(=O)NC21CCCCC1 | -1
C[C@H](CCOc1cccc(CC(=O)O)c1)N(Cc1cccc(C(F)(F)F)c1Cl)CC(c1ccccc1)c1ccccc1.Cl | -1
